- Test system: 422866-222-R5-J1-PDC complex spheroid viability
- assay_procedure: Anticancer human tumor 422866-222-R5-J1-PDC patient-derived pancreatic adenocarcinoma cell line growth inhibition [POLQ]
- assay_context: second compound 0.1 µM; first compound 10 µM; stronger effect = lower value
Can you tell me viability, T/C for the items I'm about to list?
Write the number in % without appending the unit.

Checklist item: viability, T/C tested on 422866-222-R5-J1-PDC complex spheroid viability, entry CC(C)n1c(=O)n(C)c2cnc3cc(F)c(-c4ccc(OCCCN5CCCCC5)nc4)cc3c21 + COC1C(OC(N)=O)C(O)C(Oc2ccc3c(O)c(NC(=O)c4ccc(O)c(CC=C(C)C)c4)c(=O)oc3c2C)OC1(C)C , value?
36.2

Checklist item: viability, T/C tested on 422866-222-R5-J1-PDC complex spheroid viability, entry CCc1cc2c(N3CCc4c(cc(Cn5ccnc5)cc4-c4cn(C)nc4C(F)(F)F)C3=O)cc(C)nc2c(OC)n1 + Cc1cccc(N(C)C(=O)C2C(O)CCN2c2nc(C)cc(C(F)(F)F)c2C#N)c1 , value?
119

Checklist item: viability, T/C tested on 422866-222-R5-J1-PDC complex spheroid viability, entry CC1COCCN1c1cc(C2(S(C)(=N)=O)CC2)nc(-c2ccnc3[nH]ccc23)n1 (stereo unspecified) + Cc1cccc(N(C)C(=O)C2C(O)CCN2c2nc(C)cc(C(F)(F)F)c2C#N)c1 , value?
46.3

Checklist item: viability, T/C tested on 422866-222-R5-J1-PDC complex spheroid viability, entry CCCS(=O)(=O)Nc1ccc(F)c(C(=O)c2c[nH]c3ncc(-c4ccc(Cl)cc4)cc23)c1F + COC1C(OC(N)=O)C(O)C(Oc2ccc3c(O)c(NC(=O)c4ccc(O)c(CC=C(C)C)c4)c(=O)oc3c2C)OC1(C)C , value?
86.6

Checklist item: viability, T/C tested on 422866-222-R5-J1-PDC complex spheroid viability, entry COc1cc2cc(C(=O)CCC(=O)O)sc2cc1OC + Nc1ccc(C#CCN(C(=O)Cc2ncc(C(F)(F)F)cc2C(F)(F)F)c2ccc(F)cc2)nn1 , value?
103

Checklist item: viability, T/C tested on 422866-222-R5-J1-PDC complex spheroid viability, entry COc1cc2cc(C(=O)CCC(=O)O)sc2cc1OC + COC1C(OC(N)=O)C(O)C(Oc2ccc3c(O)c(NC(=O)c4ccc(O)c(CC=C(C)C)c4)c(=O)oc3c2C)OC1(C)C , value?
102

Checklist item: viability, T/C tested on 422866-222-R5-J1-PDC complex spheroid viability, entry COc1cc2cc(C(=O)CCC(=O)O)sc2cc1OC + Cc1cccc(N(C)C(=O)C2C(O)CCN2c2nc(C)cc(C(F)(F)F)c2C#N)c1 , value?
121

Checklist item: viability, T/C tested on 422866-222-R5-J1-PDC complex spheroid viability, entry CCc1cc2c(N3CCc4c(cc(Cn5ccnc5)cc4-c4cn(C)nc4C(F)(F)F)C3=O)cc(C)nc2c(OC)n1 + Nc1ccc(C#CCN(C(=O)Cc2ncc(C(F)(F)F)cc2C(F)(F)F)c2ccc(F)cc2)nn1 , value?
99.7

Checklist item: viability, T/C tested on 422866-222-R5-J1-PDC complex spheroid viability, entry CCc1cc2c(N3CCc4c(cc(Cn5ccnc5)cc4-c4cn(C)nc4C(F)(F)F)C3=O)ccnc2c(OC)n1 + COC1C(OC(N)=O)C(O)C(Oc2ccc3c(O)c(NC(=O)c4ccc(O)c(CC=C(C)C)c4)c(=O)oc3c2C)OC1(C)C , value?
111

Checklist item: viability, T/C tested on 422866-222-R5-J1-PDC complex spheroid viability, entry COc1cc(C2c3cc4c(cc3C(OC3OC5COC(C)OC5C(O)C3O)C3COC(=O)C23)OCO4)cc(OC)c1O (stereo unspecified) + Cc1cccc(N(C)C(=O)C2C(O)CCN2c2nc(C)cc(C(F)(F)F)c2C#N)c1 , value?
31.8

Checklist item: viability, T/C tested on 422866-222-R5-J1-PDC complex spheroid viability, entry Nc1ccn(C2OC(CO)C(O)C2(F)F)c(=O)n1 (stereo unspecified) + Nc1ccc(C#CCN(C(=O)Cc2ncc(C(F)(F)F)cc2C(F)(F)F)c2ccc(F)cc2)nn1 , value?
36.4

Checklist item: viability, T/C tested on 422866-222-R5-J1-PDC complex spheroid viability, entry O=c1[nH]cc(F)c(=O)[nH]1 + Nc1ccc(C#CCN(C(=O)Cc2ncc(C(F)(F)F)cc2C(F)(F)F)c2ccc(F)cc2)nn1 , value?
76.7

Checklist item: viability, T/C tested on 422866-222-R5-J1-PDC complex spheroid viability, entry CCCS(=O)(=O)Nc1ccc(F)c(C(=O)c2c[nH]c3ncc(-c4ccc(Cl)cc4)cc23)c1F + Nc1ccc(C#CCN(C(=O)Cc2ncc(C(F)(F)F)cc2C(F)(F)F)c2ccc(F)cc2)nn1 , value?
118

Checklist item: viability, T/C tested on 422866-222-R5-J1-PDC complex spheroid viability, entry COc1ccc([C@@H](O)c2cc(-c3ncnc4cc(N5CCOCC5)ccc34)c(F)cc2Cl)nn1 + Nc1ccc(C#CCN(C(=O)Cc2ncc(C(F)(F)F)cc2C(F)(F)F)c2ccc(F)cc2)nn1 , value?
39.2

Checklist item: viability, T/C tested on 422866-222-R5-J1-PDC complex spheroid viability, entry CC1COCCN1c1cc(-c2ccnn2C)c2ccnc(-c3ccn[nH]3)c2n1 (stereo unspecified) + Nc1ccc(C#CCN(C(=O)Cc2ncc(C(F)(F)F)cc2C(F)(F)F)c2ccc(F)cc2)nn1 , value?
81.1

Checklist item: viability, T/C tested on 422866-222-R5-J1-PDC complex spheroid viability, entry O=C(Nc1ccc(O)c(NS(=O)(=O)c2ccc(F)cc2)c1)c1ccc(-c2ccccc2)cc1 + Cc1cccc(N(C)C(=O)C2C(O)CCN2c2nc(C)cc(C(F)(F)F)c2C#N)c1 , value?
116

Checklist item: viability, T/C tested on 422866-222-R5-J1-PDC complex spheroid viability, entry COc1ccc([C@@H](O)c2cc(-c3ncnc4cc(N5CCOCC5)ccc34)c(F)cc2Cl)nn1 + COC1C(OC(N)=O)C(O)C(Oc2ccc3c(O)c(NC(=O)c4ccc(O)c(CC=C(C)C)c4)c(=O)oc3c2C)OC1(C)C , value?
37.4

Checklist item: viability, T/C tested on 422866-222-R5-J1-PDC complex spheroid viability, entry O=C(Nc1ccc(O)c(NS(=O)(=O)c2ccc(F)cc2)c1)c1ccc(-c2ccccc2)cc1 + COC1C(OC(N)=O)C(O)C(Oc2ccc3c(O)c(NC(=O)c4ccc(O)c(CC=C(C)C)c4)c(=O)oc3c2C)OC1(C)C , value?
133

Checklist item: viability, T/C tested on 422866-222-R5-J1-PDC complex spheroid viability, entry COc1ccc([C@@H](O)c2cc(-c3ncnc4cc(N5CCOCC5)ccc34)c(F)cc2Cl)nn1 + Cc1cccc(N(C)C(=O)C2C(O)CCN2c2nc(C)cc(C(F)(F)F)c2C#N)c1 , value?
42.3

Checklist item: viability, T/C tested on 422866-222-R5-J1-PDC complex spheroid viability, entry C=CC(=O)N1CCN(c2nc(=O)n(-c3c(C)ccnc3C(C)C)c3nc(-c4c(O)cccc4F)c(F)cc23)C(C)C1 (stereo unspecified) + COC1C(OC(N)=O)C(O)C(Oc2ccc3c(O)c(NC(=O)c4ccc(O)c(CC=C(C)C)c4)c(=O)oc3c2C)OC1(C)C , value?
27.1

Checklist item: viability, T/C tested on 422866-222-R5-J1-PDC complex spheroid viability, entry C=CC(=O)N1CCN(c2nc(=O)n(-c3c(C)ccnc3C(C)C)c3nc(-c4c(O)cccc4F)c(F)cc23)C(C)C1 (stereo unspecified) + Cc1cccc(N(C)C(=O)C2C(O)CCN2c2nc(C)cc(C(F)(F)F)c2C#N)c1 , value?
29.3

* * *

- Test system: 422866-222-R5-J1-PDC complex spheroid viability
- assay_procedure: Anticancer human tumor 422866-222-R5-J1-PDC cell line growth inhibition [POLQ];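 also: spheroids exposed to compounds for one week before readout; percent of DMSO vehicle wells luminescence so 100% = untreated viability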
- assay_context: second compound 0.1 µM; first compound 1 µM; stronger effect = lower value
measurement_label: viability, T/C (%)
Write the number in % without appending the unit.

What measured viability, T/C goes with O=C(c1cc(Cc2n[nH]c(=O)c3ccccc23)ccc1F)N1CCN(C(=O)C2CC2)CC1 + Nc1ccc(C#CCN(C(=O)Cc2ncc(C(F)(F)F)cc2C(F)(F)F)c2ccc(F)cc2)nn1 ?
93.8

What measured viability, T/C goes with O=c1[nH]cc(F)c(=O)[nH]1 + Nc1ccc(C#CCN(C(=O)Cc2ncc(C(F)(F)F)cc2C(F)(F)F)c2ccc(F)cc2)nn1 ?
96.2

What measured viability, T/C goes with CCc1c2c(nc3ccc(O)cc13)-c1cc3c(c(=O)n1C2)COC(=O)[C@]3(O)CC + Cc1cccc(N(C)C(=O)C2C(O)CCN2c2nc(C)cc(C(F)(F)F)c2C#N)c1 ?
28.2
